Molecular target: T1, human DLL3 on SHP-77 cells (human, UniProt Q9NYJ7 27-618)
T1 construct: also called DLL3-expressing cells (SHP-77)
T1 sequence: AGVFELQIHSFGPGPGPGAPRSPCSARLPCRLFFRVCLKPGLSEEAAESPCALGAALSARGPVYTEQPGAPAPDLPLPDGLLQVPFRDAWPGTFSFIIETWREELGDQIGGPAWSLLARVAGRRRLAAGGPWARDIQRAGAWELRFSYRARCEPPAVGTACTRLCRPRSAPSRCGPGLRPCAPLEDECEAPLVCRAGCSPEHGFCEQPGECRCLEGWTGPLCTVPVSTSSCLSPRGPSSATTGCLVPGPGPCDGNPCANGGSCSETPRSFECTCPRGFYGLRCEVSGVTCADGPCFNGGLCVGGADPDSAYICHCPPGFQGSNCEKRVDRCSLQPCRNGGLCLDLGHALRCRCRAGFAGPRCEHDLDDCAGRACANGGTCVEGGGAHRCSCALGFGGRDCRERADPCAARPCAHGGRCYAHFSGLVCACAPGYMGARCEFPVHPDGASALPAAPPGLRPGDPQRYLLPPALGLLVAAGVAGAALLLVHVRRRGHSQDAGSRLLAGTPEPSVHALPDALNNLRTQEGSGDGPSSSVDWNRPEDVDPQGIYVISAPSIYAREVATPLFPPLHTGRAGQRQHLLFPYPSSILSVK
Assay: flow cytometry, SHP-77 cells
test.readout: EC50
Lab note: write values as number then unit, every time.

Give the measured EC50 of DLL3-122 camelid-derived anti-DLL3 chimeric antibody (antibody, human IgG1, V domains shown) VH: QVQLVESGGGSVQAGGSLRLSCTASGDTYRSYCMGWFRKAPGKEREGVADIVSDGSTSYADSVKGRFTISKDNAKNTLYLQMNSLKPEDTAMYYCAVDRGGSGGYCYTGRYDYWGQGTQVTVSS .
0.427 nM

May I ask what EC50 has been recorded for DLL3-3 camelid-derived anti-DLL3 chimeric antibody (antibody, human IgG1, V domains shown) VH: DVQLVESGGGSVQAGGSLKLSCKSPTYTISSGYMGWFRQAPGKEREGVAAIYIGGSTTLYADSVKGRFTISADNAEKTVYLQMNTLKPEDSAMYYCAAQLRPNSAYHPLDGRKYNYWGQGTQVTVSS ?
0.047 nM

// returns reported EC50 for input DLL3-276 camelid-derived anti-DLL3 chimeric antibody (antibody, human IgG1, V domains shown) VH: QVQLVESGGGSVQAGGSLNLSCATSGSTASTTYMGWFRQAPGKGREGVAIIYTARDNPWYANSVKGRFIISQDNAKKTLYLQMNTLKPEDTATYYCAATLANPTRTAWGQGTLVTVSS
0.374 nM
